Origin of the recorded values: patent US10738028B2

Provide the reported Anti-bacterial activity (MIC), strain ECO+ 15-3 of each item.
system: Escherichia coli (including ESBLs, non-ESBLs); test: MIC, two-fold agar dilution (CLSI), clinical isolates; format: cell-based; conditions: clinical isolate ECO+ 15-3

Query string: State the recorded Anti-bacterial activity (MIC), strain ECO+ 15-3 for this entry: CCCC[C@H](CC(=O)NO)C(=O)N1CC2(CC2)C[C@H]1C(=O)Nc1nc(C)cs1
Result string: > 32 µg/mL

Query string: State the recorded Anti-bacterial activity (MIC), strain ECO+ 15-3 for this entry: O=CN(O)C[C@@H](CC1CCCC1)C(=O)N1CC2(CC2)C[C@H]1C(=O)Nc1nncs1
Result string: 32 µg/mL

Query string: State the recorded Anti-bacterial activity (MIC), strain ECO+ 15-3 for this entry: CCCC[C@H](CC(=O)NO)C(=O)N1CC2(CC2)C[C@H]1C(=O)Nc1ncc(C)s1
Result string: > 32 µg/mL

Query string: State the recorded Anti-bacterial activity (MIC), strain ECO+ 15-3 for this entry: CCCC[C@H](CC(=O)NO)C(=O)N1CC2(CC2)C[C@H]1C(=O)Nc1cccnn1
Result string: 32 µg/mL

Query string: State the recorded Anti-bacterial activity (MIC), strain ECO+ 15-3 for this entry: Cc1cnc(NC(=O)[C@@H]2CC3(CC3)CN2C(=O)[C@@H](CC(=O)NO)CC2CCCC2)s1
Result string: 16 µg/mL

Query string: State the recorded Anti-bacterial activity (MIC), strain ECO+ 15-3 for this entry: CCCC[C@H](CC(=O)NO)C(=O)N1CC2(CCCC2)C[C@H]1C(=O)Nc1cnccn1
Result string: > 32 µg/mL

Query string: State the recorded Anti-bacterial activity (MIC), strain ECO+ 15-3 for this entry: CCCC[C@H](CC(=O)NO)C(=O)N1CC2(CC2)C[C@H]1C(=O)Nc1ncccc1F
Result string: > 32 µg/mL

Query string: State the recorded Anti-bacterial activity (MIC), strain ECO+ 15-3 for this entry: O=C(C[C@@H](CC1CCCC1)C(=O)N1CC2(CC2)C[C@H]1C(=O)Nc1ccc(N2CCOCC2)cc1)NO
Result string: 1 µg/mL

Query string: State the recorded Anti-bacterial activity (MIC), strain ECO+ 15-3 for this entry: O=C(C[C@@H](CC1CCCC1)C(=O)N1CC2(CC2)C[C@H]1C(=O)Nc1nccs1)NO
Result string: 16 µg/mL

Query string: State the recorded Anti-bacterial activity (MIC), strain ECO+ 15-3 for this entry: CCCC[C@H](CC(=O)NO)C(=O)N1CC2(CC2)C[C@H]1C(=O)NC1CC1
Result string: > 32 µg/mL

Query string: State the recorded Anti-bacterial activity (MIC), strain ECO+ 15-3 for this entry: O=C(C[C@@H](CC1CCCC1)C(=O)N1CC2(CC2)C[C@H]1C(=O)NC1CC1)NO
Result string: > 32 µg/mL

Query string: State the recorded Anti-bacterial activity (MIC), strain ECO+ 15-3 for this entry: CCCC[C@H](CC(=O)NO)C(=O)N1CC2(CC2)C[C@H]1C(=O)Nc1ccc(N2CCOCC2)cc1
Result string: > 32 µg/mL

Query string: State the recorded Anti-bacterial activity (MIC), strain ECO+ 15-3 for this entry: O=C(C[C@@H](CC1CCCC1)C(=O)N1CC2(CC2)C[C@H]1C(=O)Nc1ccc(F)cn1)NO
Result string: 16 µg/mL

Query string: State the recorded Anti-bacterial activity (MIC), strain ECO+ 15-3 for this entry: CCCC[C@H](CC(=O)NO)C(=O)N1CC2(CC2)C[C@H]1c1nc2ccccc2n1CCN(C)C
Result string: > 32 µg/mL

Query string: State the recorded Anti-bacterial activity (MIC), strain ECO+ 15-3 for this entry: CCCC[C@H](CC(=O)NO)C(=O)N1CC2(CC2)C[C@H]1C(=O)Nc1cc(C)on1
Result string: > 16 µg/mL

Query string: State the recorded Anti-bacterial activity (MIC), strain ECO+ 15-3 for this entry: CCCC[C@H](CC(=O)NO)C(=O)N1CC2(CC2)C[C@H]1C(=O)Nc1cc(C(C)(C)C)on1
Result string: > 32 µg/mL

Query string: State the recorded Anti-bacterial activity (MIC), strain ECO+ 15-3 for this entry: CCCC[C@H](CC(=O)NO)C(=O)N1CC2(CC2)C[C@H]1C(=O)Nc1cnccn1
Result string: > 32 µg/mL

Query string: State the recorded Anti-bacterial activity (MIC), strain ECO+ 15-3 for this entry: O=C(C[C@@H](CC1CCCC1)C(=O)N1CC2(CC2)C[C@H]1C(=O)Nc1nc(C(F)(F)F)cs1)NO
Result string: 32 µg/mL

Query string: State the recorded Anti-bacterial activity (MIC), strain ECO+ 15-3 for this entry: O=C(C[C@@H](CC1CCCC1)C(=O)N1CC2(CC2)C[C@@H]1c1nc2ccccc2[nH]1)NO
Result string: > 32 µg/mL

Query string: State the recorded Anti-bacterial activity (MIC), strain ECO+ 15-3 for this entry: CCCC[C@H](CC(=O)NO)C(=O)N1CC2(CCCC2)C[C@H]1C(=O)Nc1ccc(F)cn1
Result string: > 32 µg/mL

Query string: State the recorded Anti-bacterial activity (MIC), strain ECO+ 15-3 for this entry: CCCC[C@H](CC(=O)NO)C(=O)N1CC2(CC2)C[C@H]1C(=O)Nc1ncco1
Result string: > 32 µg/mL

Query string: State the recorded Anti-bacterial activity (MIC), strain ECO+ 15-3 for this entry: CCCC[C@H](CC(=O)NO)C(=O)N1CC2(CC2)C[C@H]1C(=O)Nc1ccc(F)cn1
Result string: > 32 µg/mL

Query string: State the recorded Anti-bacterial activity (MIC), strain ECO+ 15-3 for this entry: CCCC[C@H](CC(=O)NO)C(=O)N1CC2(CC2)C[C@H]1c1nc2ccccc2[nH]1
Result string: > 32 µg/mL

Query string: State the recorded Anti-bacterial activity (MIC), strain ECO+ 15-3 for this entry: CCCC[C@H](CC(=O)NO)C(=O)N1CC2(CC2)C[C@@H]1c1nc2ccccc2[nH]1
Result string: > 32 µg/mL

Query string: State the recorded Anti-bacterial activity (MIC), strain ECO+ 15-3 for this entry: Cc1cc(NC(=O)[C@@H]2CC3(CC3)CN2C(=O)[C@@H](CC(=O)NO)CC2CCCC2)no1
Result string: 32 µg/mL

Query string: State the recorded Anti-bacterial activity (MIC), strain ECO+ 15-3 for this entry: O=C(C[C@@H](CC1CCCC1)C(=O)N1CC2(CC2)C[C@H]1C(=O)Nc1cnccn1)NO
Result string: 0.5 µg/mL

Query string: State the recorded Anti-bacterial activity (MIC), strain ECO+ 15-3 for this entry: CCCC[C@H](CC(=O)NO)C(=O)N1CC2(CC2)C[C@H]1C(=O)Nc1nc(C(F)(F)F)cs1
Result string: > 32 µg/mL

Query string: State the recorded Anti-bacterial activity (MIC), strain ECO+ 15-3 for this entry: O=C(C[C@@H](CC1CCCC1)C(=O)N1CC2(CC2)C[C@H]1c1nc2ccccc2[nH]1)NO
Result string: 32 µg/mL

Query string: State the recorded Anti-bacterial activity (MIC), strain ECO+ 15-3 for this entry: O=C(C[C@@H](CC1CCCC1)C(=O)N1CC2(CC2)C[C@H]1C(=O)Nc1ccno1)NO
Result string: 32 µg/mL

Query string: State the recorded Anti-bacterial activity (MIC), strain ECO+ 15-3 for this entry: O=CN(O)C[C@@H](CC1CCCC1)C(=O)N1CC2(CC2)C[C@H]1C(=O)Nc1nccs1 (stereo in doubt)
Result string: 32 µg/mL

Query string: State the recorded Anti-bacterial activity (MIC), strain ECO+ 15-3 for this entry: CCCC[C@H](CC(=O)NO)C(=O)N1CC2(CC2)C[C@H]1C(=O)Nc1cnn(CCN(C)C)c1
Result string: > 32 µg/mL
